Target: T1, TRAF2, Q12933
T1 chain: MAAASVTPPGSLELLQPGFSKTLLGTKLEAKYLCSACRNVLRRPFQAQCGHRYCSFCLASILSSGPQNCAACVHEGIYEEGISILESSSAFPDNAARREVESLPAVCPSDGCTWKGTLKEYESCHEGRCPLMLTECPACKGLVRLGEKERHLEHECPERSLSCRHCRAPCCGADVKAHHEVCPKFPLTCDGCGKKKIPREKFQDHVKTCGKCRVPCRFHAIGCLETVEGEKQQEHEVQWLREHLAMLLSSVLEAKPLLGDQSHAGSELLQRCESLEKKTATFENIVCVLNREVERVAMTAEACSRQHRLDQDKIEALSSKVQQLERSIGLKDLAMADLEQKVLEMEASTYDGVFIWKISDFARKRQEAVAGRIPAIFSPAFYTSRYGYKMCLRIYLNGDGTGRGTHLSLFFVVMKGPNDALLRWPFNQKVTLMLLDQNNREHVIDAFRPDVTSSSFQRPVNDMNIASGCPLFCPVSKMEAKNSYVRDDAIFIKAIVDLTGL
Assay: median log2 fold change of GCK-ALFA target abundance (FLAG IP / Myc IP barcode read proportion) (log2 ratio); each designed protein is fused to an ALFA-tag nanobody in HEK293 cells to bring the named protein to FLAG-tagged glucokinase (GCK); Myc marks an untargeted standard; higher = target protein stabilised (more abundant)
Conditions: target protein: 3xFLAG-MCP-GCK-ALFA reporter; HEK293 landing pad (RPLP)
The full ranking holds about 1,800 sequences; the median of “median log2 fold change of GCK-ALFA target abundance (FLAG IP / Myc IP barcode read proportion)” is about 0.14, and the lowest 2% start at about -0.84. Shown is part of a subset that was picked to be rich in the lowest values.
Measured median log2 fold change accompanies every entry in the list below.
Readout Name: median log2 fold change

>>> observed_result("traf2_out_13_95_1078 (protein) SAEANKKIMEIADEMLEKSLKILKELSKKVADNPEMKAAVEEAIHLAETQGINAAIHLLEKLSEANPEYKELLDEAIKKLKEIKEEAGKKVAEILKEEKE")
0.00315
>>> observed_result("traf2_out_17_162_1600 (protein) SELEKFKEKIEKELEELEKERKELEKKLKEIDSLSKEELTDLLVEASEKRRKALELLEKLEENKEKLDKEFYEKYKKRAEEIAEEFQRIANEIMKKLEEK")
0.0488
>>> observed_result("traf2_out_17_162_1536 (protein) SPEDERLAELQKRLEELEKKLEELEKKLKNIEKLSKEELTDLLVEASELRREARELAEELRELAEKTGSPEAEELRERAEELAEKLQRIANEIYKELEKK")
0.429
>>> observed_result("traf2_out_5_189_2315 (protein) SAREEEQKALNEKAKEIGKEVTKLINEMKKEGKSWEEIAEKMLEKMKTLPVDDAALYSGIFYSIMLGEAIANNDEKLKEIAEKFREKAKELIKEKEKKEA")
0.387
>>> observed_result("traf2_out_6_156_2416 (protein) MVEEILKEALEKVKELIKELAKAPESKKIQYISKIAGTAYRALQKLREAGASLEEIEEFAKRFLEETKKLAKEAGLPEDTINLLLSALQAVFDVAIAEAK")
-0.0768
>>> observed_result("traf2_out_17_178_1708 (protein) TKEEARKRISEATDEMIDLAEEAAARLLEIAEREGSLSPEELAALRRARRLGSARTTIALMERAIPRLRSAEEVRALLEELKARYRELSKEIAEALEKYE")
-0.184
>>> observed_result("traf2_out_20_3_2068 (protein) EELEKELEEALEKALALLKKAAALADPETAAELDALIKELKASKELSVSDRLVAVSAVRRRVLRLAEEAEAAGDAELAAVLNKAADALNRAAQLLYQILQ")
-0.0614
>>> observed_result("traf2_out_17_178_1659 (protein) NKEEARAEISAATDELIDLTEATADRLLAILEADGTASPEELAALREARRLGSATTTRALMEAAVPRSPRSAEVAALLDDFTKRSGELAKKIAEAYKKYE")
0.0548
>>> observed_result("traf2_out_13_95_1055 (protein) SAETAAKINEIADEALERALALLRAAQEEVADDPAASAVLAEALRLAETRGISEAIHLLREAQAADPAHAERFAALIEELEAIRREAGRRVAEVLKEEKE")
0.257
>>> observed_result("traf2_out_20_3_2213 (protein) DELVAAVREQLAKIRELLEQARPRLAPEDYARLNALLARAEEALETDPSDALVALSELRRALLELAERARAAGDEELAKLLEEAAEAANKAANLVMQLLE")
0.129
>>> observed_result("traf2_out_11_131_661 (protein) MDAVAMAKSVAARVDERLALAKTLSPEERTRLARQALDSIEALAEYLTSHVSEMSKEDVEEAVKILRASAKKVLAADPSVAEDVKEVEKALKKLLEAAKA")
0.0951
